Test system: PDE1
experiment-summary: In vitro HTRF PDE1 inhibition assay
Assay type: biochemical
assay-conditions: HTRF cGMP assay, 100 nM cyclic GMP, PDE (1A3, 1B or 1C) with calmodulin, 45 minutes at 37° C.; isoform of the tabulated values not stated
parameter-measured: IC50

Example compounds with recorded IC50:
compound	IC50
COc1ccccc1N1CCn2c(nc3c(cnn3C3CCCC3)c2=O)C1	1 to 10 µM
COCCn1ncc2c(=O)n3c(nc21)CN(Cc1ccc2c(c1)OCO2)CC3	> 10 µM
COc1ccc(C(C)N2CCn3c(nc4c(cnn4C4CCCC4)c3=O)C2)cc1 (racemic)	1 to 10 µM

Now look at this entry.
Given "Cc1ncc(CN2CCn3c(nn4c(C(C)C)ncc4c3=O)C2)cn1" , state its recorded IC50.
1 to 10 µM
